The values you see were collected from ChEMBL document CHEMBL5055636.

study-system: Peptidyl-prolyl cis-trans isomerase A (Homo sapiens, UniProt P62937)
Sequence (P62937 whole entry, looked up): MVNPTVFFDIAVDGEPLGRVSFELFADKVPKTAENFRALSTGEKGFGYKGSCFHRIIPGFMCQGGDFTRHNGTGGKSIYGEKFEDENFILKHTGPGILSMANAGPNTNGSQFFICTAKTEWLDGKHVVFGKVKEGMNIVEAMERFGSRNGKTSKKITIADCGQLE
experimental-details: Binding affinity to His6-tagged CypA (unknown origin) expressed in Escherichia coli BL21 (DE3) incubation at 1 hr by multimode plate reader
The source made the active and inactive calls. No cut-off for these calls is given here. Positions of bridges follow the written chain, without caps; N, C: chain ends. Residues, ends and D or L forms follow the SMILES beside them.
Reply using exactly one outcome from Y (active), N (inactive)

Lab log entry: CC[C@H](C)[C@@H]1NC(=O)[C@H](CC(C)C)NC(=O)[C@@H](NC(C)=O)CSSC[C@@H](C(N)=O)NC(=O)[C@H](CCC(=O)O)NC(=O)[C@H](C(C)C)NC(=O)[C@H](CCCCN)NC(=O)[C@H](CCCNC(=N)N)NC(=O)CNC(=O)[C@H](CC(=O)O)NC(=O)[C@H](CCCCN)NC(=O)[C@H](C)NC(=O)[C@H](CCCCN)NC1=O (Ac-CLIKAKDGRKVEC-NH2; disulfide 1-13) — outcome as called in the assay?
Y

Each compound tested received a call. Report the one for CC(=O)N[C@H]1CSSC[C@@H](C(N)=O)NC(=O)[C@H](CCC(=O)O)NC(=O)[C@H](C(C)C)NC(=O)[C@H](CCCCN)NC(=O)[C@H](CCCNC(=N)N)NC(=O)CNC(=O)[C@H](CC(=O)O)NC(=O)[C@H](CCCCN)NC(=O)[C@H](CC(C)C)NC(=O)[C@H](CCCCN)NC(=O)[C@H](C)NC(=O)[C@H](CC(C)C)NC1=O (Ac-CLAKLKDGRKVEC-NH2; disulfide 1-13) .
Y

Test call, this compound: CC[C@H](C)[C@@H]1NC(=O)[C@H](CC(C)C)NC(=O)[C@@H](NC(C)=O)CSSC[C@@H](C(N)=O)NC(=O)[C@H](CCC(=O)O)NC(=O)[C@H](C(C)C)NC(=O)[C@H](CCCCN)NC(=O)[C@H](CCCNC(=N)N)NC(=O)CNC(=O)[C@H](CC(=O)O)NC(=O)[C@H](C)NC(=O)[C@H](CC(C)C)NC(=O)[C@H](CCCCN)NC1=O (Ac-CLIKLADGRKVEC-NH2; disulfide 1-13)
N

Just curious, what result did CC[C@H](C)[C@@H]1NC(=O)[C@H](CC(C)C)NC(=O)[C@@H](NC(C)=O)CSSC[C@@H](C(N)=O)NC(=O)[C@H](CCC(=O)O)NC(=O)[C@H](C(C)C)NC(=O)[C@H](C)NC(=O)[C@H](CCCNC(=N)N)NC(=O)CNC(=O)[C@H](CC(=O)O)NC(=O)[C@H](CCCCN)NC(=O)[C@H](CC(C)C)NC(=O)[C@H](CCCCN)NC1=O (Ac-CLIKLKDGRAVEC-NH2; disulfide 1-13) get here?
N
